The entries below are paired with their reported inhibition.
- experimentNotes: human hepatoma cell viability loss – ATP luminescence, cytotoxicity control for P. falciparum antimalarial project, primary screen (AID 2303);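 also: 0% = DMSO wells and 100% = digitonin-killed cells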
- conditionsUsed: HepG2 viability, 24-48 h, at 10 µM, hits give high values
Please give a number only; it is taken to be in %.

| molecule | inhibition, % |
| --- | --- |
| Cn1cc(-c2ccccc2C(=O)O)c(=O)c2cc(Cl)ccc21 | 16 |
| CNc1ccc(CNCc2ccc(-c3ccc(-c4nc5ccc(F)cc5[nH]4)cc3)cc2)cc1 | 38 |
| C[C@@H](CC1CCCCC1)OC(=O)N(C)[C@H]1CCN(C#N)C1 | 4 |
| CN(CC1CCC(NC(=O)/C=C/c2ccc(Cl)c(Cl)c2)CC1)C1CCC(c2c[nH]c3ccccc23)CC1 (stereo not given) | 53 |

Shifting focus to the molecule that follows.
Would you kindly share the measured inhibition for Oc1ccc(CCNc2nc(NCCCOc3ccccc3-c3ccncc3)nc(N3CCNCC3)n2)cc1 ?
8

* * *

- systemName: Calcium-dependent protein kinase 1 (Plasmodium falciparum (isolate 3D7))
- experimentNotes: PfCDPK1 kinase inhibitors, biochemical, TCAMS library (AID 1159585);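 also: inhibitors leave more ATP so luminescence rises with inhibition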
- conditionsUsed: recombinant PfCDPK1, Kinase-Glo ATP depletion luminescence
Results with a measured potency or affinity are listed apart. Calls of active or inactive are those of the source. Cut-off not given; nearly all actives show IC50 up to about 0.98 µM.
quantityMeasured: outcome

Example results:
| molecule | outcome |
| --- | --- |
| COc1cc(Cc2cnc(N)nc2N)cc(OC)c1OCCNC(=O)[C@@H](N)CCC(=O)O | inactive |
| Cc1ccc(Nc2nc(NN=Cc3cc4c(cc3Br)OCO4)nc(Nc3ccc([N+](=O)[O-])cc3)n2)cc1C | inactive |
| O=C(NCCCN1CCC(N2CCCCC2)CC1)c1ccc(N2CCOc3ccccc32)s1 | inactive |
| COc1cc(Cc2cnc(N)nc2N)cc(OCCCCCC(N)=O)c1OC | inactive |
| O=C(OCc1ccccn1)c1nc2ccccc2[nH]1 | inactive |

// switching to the query molecule
Looking for the measured outcome of NS(=O)(=O)c1cccc(-c2ccc3ncc(N4CCOCC4)nc3c2)c1 , can you help?
inactive

* * *

Entries and their growth inhibition
- experimentNotes: antimalarial activity against Dd2 strain (AID 2302);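 also: 0% = DMSO untreated growth and 100% = chloroquine plus artemisinin killed control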
- conditionsUsed: P. falciparum Dd2 in RBCs, LDH growth readout, 72 h; at 2 µM; hits give high values
Number in %, nothing else.

| compoundSmiles | unitOfMeasure | growth inhibition |
| --- | --- | --- |
| O=C(C1CC1)N1c2ccccc2CCc2ccccc21 | % | 57 |
| CC(C)CN(C)c1ncnc2c1nc(-c1cncc(C#N)c1)n2CCNCc1ccccc1 | % | 2 |
| C=CCO[C@@H]1O[C@H](COC(c2ccccc2)(c2ccccc2)c2ccccc2)[C@@H](OC(C)=O)[C@H](OC(C)=O)[C@H]1NC(C)=O | % | 66 |
| Nc1ncc(-c2ccccc2)cc1-c1cccc2ncccc12 | % | 99 |

Please look at the following molecule next.
Dear colleague, I am looking for the recorded growth inhibition of the following molecule: CC1(C)[C@H]2CC[C@@H](CNc3nc(NCCc4cnc[nH]4)nc(NCc4cc(F)ccc4F)n3)[C@@H]1C2
91

* * *

- systemName: L-lactate dehydrogenase (Plasmodium falciparum (isolate CDC / Honduras)) (UniProt Q27743)
- Sequence (Q27743 whole entry, looked up): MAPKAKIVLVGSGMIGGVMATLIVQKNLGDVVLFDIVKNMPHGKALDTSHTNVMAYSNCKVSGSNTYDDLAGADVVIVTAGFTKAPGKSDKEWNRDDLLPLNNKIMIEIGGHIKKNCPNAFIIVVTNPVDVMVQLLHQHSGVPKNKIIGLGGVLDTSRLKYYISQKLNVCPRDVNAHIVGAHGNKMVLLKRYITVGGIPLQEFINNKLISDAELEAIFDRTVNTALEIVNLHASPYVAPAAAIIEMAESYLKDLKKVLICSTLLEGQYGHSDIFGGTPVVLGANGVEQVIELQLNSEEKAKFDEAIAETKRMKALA
- experimentNotes: PfLDH activity inhibition – cell lysate, 3D7 strain, counter-screen for P. falciparum growth inhibition project (AID 2304);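 also: 0% = vehicle and 100% = reference inhibitor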
- conditionsUsed: P. falciparum 3D7 crude extract, LDH APAD/NBT absorbance; at 2 µM; hits give high values
Reported inhibition by item:
Output spec: scalar in %, unitless text.

Use these answered entries as a reference point.
| molecule | systemName | unitOfMeasure | inhibition |
| --- | --- | --- | --- |
| O=C(NC1CCN(CCN2CCC(c3cn(CCO)c4ccccc34)CC2)CC1)c1ccc(-c2ccc(C(F)(F)F)cc2)cc1 | L-lactate dehydrogenase (Plasmodium falciparum (isolate CDC / Honduras)) (UniProt Q27743) | % | -1 |
| CN1CCC(NCc2ccc(-c3cccc(S(=O)(=O)NCc4ccccc4)c3)cc2)CC1 | L-lactate dehydrogenase (Plasmodium falciparum (isolate CDC / Honduras)) (UniProt Q27743) | % | -3 |
| COc1cccc(-c2ccc(C(=O)NC3CCN(Cc4ccc(N(C)C)cc4)CC3)s2)c1 | L-lactate dehydrogenase (Plasmodium falciparum (isolate CDC / Honduras)) (UniProt Q27743) | % | -1 |
| CCCCNCc1ccc(-c2nc(CN(C(=O)Nc3cc([N+](=O)[O-])ccc3F)C3Cc4ccccc4C3)cs2)cc1 | L-lactate dehydrogenase (Plasmodium falciparum (isolate CDC / Honduras)) (UniProt Q27743) | % | -2 |

Item: Cc1cccc(NC(c2cccs2)c2c(NC(=O)c3ccccc3)sc(C)c2C)n1 (stereo not given) Test system: L-lactate dehydrogenase (Plasmodium falciparum (isolate CDC / Honduras)) (UniProt Q27743) Read-out: inhibition Value: ?
1
